Exercise: for every item that follows, state its recorded polymerase ribozyme fitness (log ratio).
B1: TPR t1 (parent)
chain: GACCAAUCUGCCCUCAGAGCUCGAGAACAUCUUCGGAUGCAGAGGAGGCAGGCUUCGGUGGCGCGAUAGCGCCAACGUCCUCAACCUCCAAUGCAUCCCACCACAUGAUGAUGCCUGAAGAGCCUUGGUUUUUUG

variants of: B1; assay: polymerase ribozyme fitness, log enrichment relative to wild type (log ratio); higher = more active; in vitro selection for triplet polymerase activity

// polymerase ribozyme fitness (log ratio) value for C56U G61U C82A A91G C114U : -6.55

// polymerase ribozyme fitness (log ratio) value for C49A A50C C56A C79A U132A : -3.18

// polymerase ribozyme fitness (log ratio) value for C31A C73G : -5.21

// polymerase ribozyme fitness (log ratio) value for C15A U92A : -4.5

// polymerase ribozyme fitness (log ratio) value for G42A C72U : -2.31

// polymerase ribozyme fitness (log ratio) value for G10A C13U U30C C31A G42U C123A U126G : -5.09

// polymerase ribozyme fitness (log ratio) value for A24U G60A : -4.63

// polymerase ribozyme fitness (log ratio) value for A2U A91C G120U : -3.98

// polymerase ribozyme fitness (log ratio) value for G10U G17A : -3.07

// polymerase ribozyme fitness (log ratio) value for G10C C12U U14A G71U G107U : -5.41

// polymerase ribozyme fitness (log ratio) value for U9C A16G G57C G110C : -4.22

// polymerase ribozyme fitness (log ratio) value for A50G C53A C72A G93C U109G : -5.37

// polymerase ribozyme fitness (log ratio) value for G48U G52U C98U G117U : -6.54

// polymerase ribozyme fitness (log ratio) value for U78A C123A : 0.278

// polymerase ribozyme fitness (log ratio) value for C11G G39A C124A : 1.48

// polymerase ribozyme fitness (log ratio) value for G39U C70A : -2.96

// polymerase ribozyme fitness (log ratio) value for A83C C85A C115A G117A : -6.05

// polymerase ribozyme fitness (log ratio) value for U7A C123G : 2.34

// polymerase ribozyme fitness (log ratio) value for C8A A111C : 0.0486

// polymerase ribozyme fitness (log ratio) value for C13U A91U : -0.839

// polymerase ribozyme fitness (log ratio) value for G17C U54G G61A C94A U112G : -6.29

// polymerase ribozyme fitness (log ratio) value for A18U C73G A100U G113A G128A : -5.47

// polymerase ribozyme fitness (log ratio) value for A41U C86G A95U : -3.96

// polymerase ribozyme fitness (log ratio) value for C53G G117A U132A : -1.03

// polymerase ribozyme fitness (log ratio) value for `C97U` : -0.53

// polymerase ribozyme fitness (log ratio) value for G63A G93A : -1.38

// polymerase ribozyme fitness (log ratio) value for C34G C79U : -5.43

// polymerase ribozyme fitness (log ratio) value for G39C G52A : -1.32

// polymerase ribozyme fitness (log ratio) value for G42U G135U : -1.66

// polymerase ribozyme fitness (log ratio) value for U9A C15A G45C A108G : -4.55

// polymerase ribozyme fitness (log ratio) value for `A37U` : -0.355

// polymerase ribozyme fitness (log ratio) value for A5U C40A : -2.19

// polymerase ribozyme fitness (log ratio) value for G23U G69C G120A : -5.9

// polymerase ribozyme fitness (log ratio) value for C3G U55C C72U G93A : -4.63
